Test system: MCF7
Test: Selectivity index, ratio of IC50 for human MCF7 cells under hypoxic condition to IC50 for human MCF7 cells under normoxic condition
Type: functional
Observation type: Ratio IC50
Answer using only a numeral; do not append any unit.

Reported Ratio IC50 for C=C1/C=C/C(=O)NCC(=O)N[C@@H](C(C)C)C(=O)O[C@@H]([C@H](C)CCCCCC)[C@H](CCO[Si](c2ccccc2)(c2ccccc2)C(C)(C)C)C(=O)N1 was 1.34

Reported Ratio IC50 for C=C1/C=C/C(=O)N[C@H](C)C(=O)N[C@@H](C(C)C)C(=O)O[C@@H]([C@H](C)CCCCCC)[C@H](CCO[Si](c2ccccc2)(c2ccccc2)C(C)(C)C)C(=O)N1 was 1.09

Reported Ratio IC50 for C=C1/C=C/C(=O)N[C@@H](C)C(=O)N[C@H](C(C)C)C(=O)O[C@@H]([C@H](C)CCCCCC)[C@H](CCOCc2ccc(OC)cc2)C(=O)N1 was 0.79

Reported Ratio IC50 for C=C1/C=C/C(=O)N[C@@H](C)C(=O)N[C@H](C(C)C)C(=O)O[C@@H]([C@H](C)CCCCCC)[C@H](CCO[Si](c2ccccc2)(c2ccccc2)C(C)(C)C)C(=O)N1 was 0.78
